Listed here are compounds together with their documented IC50.
system: T. cruzi intracellular amastigotes; assay: Intracellular anti-Trypanosoma cruzi image-based assay (amastigotes); format: cell-based; conditions: Trypanosoma cruzi, 48 h, read-out: IC50 T. cruzi (Discovery Biology)
Answer format: value, then unit.

{"columns": ["compound", "subject-of-test", "IC50"],
 "data": [
  ["Nc1nc2ccc(-c3cncc(Oc4ccc(F)cc4)c3)cc2[nH]1 [MMV687248]", "T. cruzi intracellular amastigotes", "4000 nM"]
]}

Q) Respond only with IC50 recorded for c1ccc(-c2nc(NC3CCCCC3)cc(C3CC3)n2)nc1 [MMV021013]
A) 1670 nM

====

system: T. cruzi intracellular amastigotes; experiment: Intracellular anti-Trypanosoma cruzi image-based assay (amastigotes); assay type: cell-based
outcome-measure: activity against T. cruzi in the Discovery Biology assay

# annotated cases, reported activity against T. cruzi in the Discovery Biology assay shown
{"columns": ["molecule", "subject-of-test", "assay-result"],
 "data": [
  ["COc1ccc(Oc2ccc([C@@H](C)N(C)c3ncc4c(N)nc(N)nc4n3)cc2)cc1", "T. cruzi intracellular amastigotes", "demonstrated activity"],
  ["N=C(N)Nc1ccc(-c2ccc(-c3ccc(NC(=N)N)c(Cl)c3)o2)cc1Cl", "T. cruzi intracellular amastigotes", "lack of activity"],
  ["C[C@H](c1ccc2c(c1)CCCC2)N(C)c1ncc2c(N)nc(N)nc2n1", "T. cruzi intracellular amastigotes", "demonstrated activity"],
  ["N=C(N)Nc1ccc(-c2ccc(-c3ccc(NC(=N)N)cc3Cl)o2)c(Cl)c1", "T. cruzi intracellular amastigotes", "lack of activity"]
]}

For the next question, use this molecule.
Q) Tell us which activity against T. cruzi in the Discovery Biology assay value is on record for CC(c1cc(Cl)cc(Cl)c1)N(C)c1ncc2c(N)nc(N)nc2n1 (stereo not shown)
A) demonstrated activity
